System: Staphylococcus aureus
Assay: Antibacterial activity against methicillin-resistant Staphylococcus aureus Sa2 by broth microdilution method
Assay type: functional
Conditions: Staphylococcus aureus, Sa2; read-out: MIC
Reported Metric: MIC

Molecule: CO[C@H]1CCCCCCCCC[C@@H](C)OC(=O)CCC1=O
Observed Result: > 64 µg/mL
//
Molecule: CO[C@H]1CCCCCCCCC[C@@H](C)OC(=O)C2OC2C1=O (single isomer, unassigned; diastereomer 1)
Observed Result: > 64 µg/mL

Let us examine a further case.
The recorded MIC for CO[C@H]1CCCCCCCCC[C@@H](C)OC(=O)C2CC2C1=O (mixture of isomers) is > 64 µg/mL

###

Test system: Pseudomonas aeruginosa
Test: Antibacterial activity against Pseudomonas aeruginosa ATCC 27853 by broth dilution method
Format: functional
A collection of compounds and their measured MIC

Compound: CC(=O)O[C@H]1CCCCCCCCC[C@@H](C)OC(=O)/C=C/C1=O
Observed Result: > 64 µg/mL

Compound: C[C@@H]1CCCCCCCCC[C@H](OC(=O)CCC(=O)OC(C)(C)C)C(=O)CC(N2CCN(C)CC2)C(=O)O1 (stereo not given in full)
Observed Result: > 32 µg/mL

Compound: CO[C@H]1CCCCCCCCC[C@@H](C)OC(=O)CCC1=O
Observed Result: > 64 µg/mL

Compound: C[C@@H]1CCCCCCCCC[C@H](OC(=O)CCC(=O)OC(C)(C)C)C(=O)/C=C/C(=O)O1
Observed Result: > 32 µg/mL

Compound: Cc1nc2c([nH]1)CCCCCCCCC[C@@H](C)OC(=O)/C=C/2
Observed Result: > 64 µg/mL

Compound: CO[C@H]1CCCCCCCCC[C@@H](C)OC(=O)C2OC2C1=O (single isomer, unassigned; diastereomer 1)
Observed Result: > 64 µg/mL

Compound: CO[C@H]1CCCCCCCCC[C@@H](C)OC(=O)C(S(=O)(=O)c2ccccc2)CC1=O (stereo not given in full)
Observed Result: > 64 µg/mL

Compound: C[C@@H]1CCCCCCCCC[C@H](OC(=O)CCC(=O)O)C(=O)/C=C/C(=O)O1
Observed Result: > 32 µg/mL

Compound: CO[C@H]1CCCCCCCCC[C@@H](C)OC(=O)/C=C/C1=O
Observed Result: > 64 µg/mL

Let us examine a further case.
Tested on Pseudomonas aeruginosa: C[C@@H]1CCCCCCCCC[C@H](OC(=O)CCC(=O)OC(C)(C)C)C(=O)c2[nH]ncc2C(=O)O1 . Observed MIC: > 64 µg/mL
